Entries and their furin cleavage Z-score
tested_system: furin, P09958;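 note: purified furin at 1:10 enzyme:substrate in 50 mM HEPES pH 7.5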
Sequence (P09958 whole entry): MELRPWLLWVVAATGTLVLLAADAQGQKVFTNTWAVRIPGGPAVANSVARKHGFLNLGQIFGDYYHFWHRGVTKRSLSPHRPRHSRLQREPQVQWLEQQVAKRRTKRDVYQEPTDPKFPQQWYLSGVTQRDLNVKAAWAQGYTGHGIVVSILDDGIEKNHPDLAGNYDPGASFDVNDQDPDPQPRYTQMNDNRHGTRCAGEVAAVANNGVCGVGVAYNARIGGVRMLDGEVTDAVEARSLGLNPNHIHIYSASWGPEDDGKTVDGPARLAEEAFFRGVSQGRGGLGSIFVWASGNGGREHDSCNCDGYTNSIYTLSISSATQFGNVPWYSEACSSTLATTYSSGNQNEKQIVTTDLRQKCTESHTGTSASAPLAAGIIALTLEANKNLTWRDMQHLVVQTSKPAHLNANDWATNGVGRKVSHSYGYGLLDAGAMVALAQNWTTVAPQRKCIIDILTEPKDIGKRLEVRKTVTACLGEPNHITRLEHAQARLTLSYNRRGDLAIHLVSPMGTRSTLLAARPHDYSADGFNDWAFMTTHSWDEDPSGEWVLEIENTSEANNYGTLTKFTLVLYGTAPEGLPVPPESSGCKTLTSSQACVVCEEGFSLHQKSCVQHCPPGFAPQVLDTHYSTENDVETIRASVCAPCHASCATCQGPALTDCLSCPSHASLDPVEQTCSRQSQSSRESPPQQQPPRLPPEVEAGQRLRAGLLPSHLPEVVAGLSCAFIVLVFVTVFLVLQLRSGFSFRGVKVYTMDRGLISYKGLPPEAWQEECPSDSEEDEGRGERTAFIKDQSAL
test: furin cleavage Z-score vs untreated control; higher = more cleavage, active = 3.5 or more, inactive = 1 or less, 8 variable residues between constant flanks
reported_conditions: 7.5 min
The list shows a part of the results. The hit rate among all sequences tested is not known here.

macromolecule_sequence	furin cleavage Z-score
CARYNRPPREAGNASASA [FS-378]	9.4 (active)
CAGYELQGREAGNASASA [FS-534]	-1.04 (inactive)
CAELVVCCSMAGNASASA [HC2125]	-0.0192 (inactive)
CAPPQKAKRSAGNASASA [FS-70]	10.3 (active)
CAPAQRLARSAGNASASA [FS-1471]	10.2 (active)
CAYHGRIPREAGNASASA [FS-1619]	4.85 (active)
CALPCRPQRSAGNASASA [FS-612]	0.0451 (inactive)
